- experimentSummary: Toxicity liver stage against HepG2, at 10uM
- Type: cell-based
- Parameters: test concentration 10 uM, cell line HepG2-A16-CD81EGFP
- experimentalContext: human, HepG2-A16-CD81EGFP cells; read-out: INHIBITION

{"molecule": "Cc1cc(NC(=O)c2ccc(-n3ncc(C#N)c3N)cc2)n(C)n1", "cytotoxicity at 10 µM / %": -0.0414}
{"molecule": "CC(=O)c1sc(Nc2ccc(Cl)cn2)nc1C", "cytotoxicity at 10 µM / %": 41.9}
{"molecule": "COc1c(C)cnc(CN2CCCC(c3noc(C4CC4)n3)C2)c1C (stereo unspecified)", "cytotoxicity at 10 µM / %": -1.62}
{"molecule": "Cn1nc(C2CN(S(C)(=O)=O)C2)c2nccnc21", "cytotoxicity at 10 µM / %": -13.2}
{"molecule": "Cc1ccc(-c2ccnc(NCC(O)c3ccc(O)cc3)n2)c(C)n1 (stereo unspecified)", "cytotoxicity at 10 µM / %": 0.781}
{"molecule": "CCS(=O)(=O)N1CCCC2(CCCC(=O)N2C)C1 (stereo unspecified)", "cytotoxicity at 10 µM / %": 8.86}
{"molecule": "COc1cc(-c2cc(N)ncn2)cc(OC)c1OC", "cytotoxicity at 10 µM / %": -5.11}
{"molecule": "c1cnnc(N2CCCC2CNc2ncnc3sccc23)c1 (stereo unspecified)", "cytotoxicity at 10 µM / %": -12.9}
{"molecule": "COc1cc(CNCCc2cnn(C)c2)cc(OC)c1OC", "cytotoxicity at 10 µM / %": -9.51}
{"molecule": "COc1c(CNC(c2ccccc2F)c2nccn2C)c(C)nn1C (stereo unspecified)", "cytotoxicity at 10 µM / %": -13.9}
{"molecule": "CC(C)(C(=O)NCC1CCN(Cc2ccccn2)C1)c1ccccc1 (stereo unspecified)", "cytotoxicity at 10 µM / %": -3.09}
{"molecule": "COc1ccccc1-n1nc(-c2ccco2)n(CC(=O)NC(C)C)c1=O", "cytotoxicity at 10 µM / %": 2.57}
{"molecule": "c1cncc(-c2noc(CN3CCOC(Cn4cccn4)C3)n2)c1 (stereo unspecified)", "cytotoxicity at 10 µM / %": -11.4}
{"molecule": "CC1CS(=O)(=O)CCN1Cc1ccccc1N(C)C (stereo unspecified)", "cytotoxicity at 10 µM / %": 5.29}
{"molecule": "O=C(CCc1cscn1)N1CCCC(n2cncn2)C1 (stereo unspecified)", "cytotoxicity at 10 µM / %": -3.81}
{"molecule": "CC(NC(=O)NCc1ccccc1Cl)c1ccccn1 (stereo unspecified)", "cytotoxicity at 10 µM / %": -11.1}

----------
- experimentSummary: Toxicity liver stage against HepG2, at 10uM
- Type: cell-based
- Set-up: test concentration 10 uM, cell line HepG2-A16-CD81EGFP
- experimentalContext: human, HepG2-A16-CD81EGFP cells; read-out: INHIBITION
propertyMeasured: cytotoxicity at 10 µM (%)

{"compound": "Cc1ncsc1C(=O)N1CCCC(c2cc(C(F)F)n3ncnc3n2)C1 (stereo unspecified)", "observedValue": 4.05}
{"compound": "O=C(c1ccccc1OC1CCCC1)N1CCCC(n2cncn2)C1 (stereo unspecified)", "observedValue": -0.0581}
{"compound": "Cc1ccc(S(=O)(=O)N(C)Cc2nccs2)cc1N(C)C", "observedValue": -9.78}
{"compound": "CC(C)NC(=O)c1nnn(-c2ccccc2)c1C1CC1", "observedValue": 2.2}
{"compound": "OC(CNC1CCOCC1)c1ccc(Cl)c(F)c1 (stereo unspecified)", "observedValue": -1.12}
{"compound": "O=C(C1CCOCC1)N1CC[C@H]2[C@H]1CCN2c1nncs1", "observedValue": -4.78}
